- TARGET_OF_ASSAY: recombinant FXIa (Canis lupus familiaris, UniProt A0A8I3NYS2)
- Sequence (A0A8I3NYS2 389-626): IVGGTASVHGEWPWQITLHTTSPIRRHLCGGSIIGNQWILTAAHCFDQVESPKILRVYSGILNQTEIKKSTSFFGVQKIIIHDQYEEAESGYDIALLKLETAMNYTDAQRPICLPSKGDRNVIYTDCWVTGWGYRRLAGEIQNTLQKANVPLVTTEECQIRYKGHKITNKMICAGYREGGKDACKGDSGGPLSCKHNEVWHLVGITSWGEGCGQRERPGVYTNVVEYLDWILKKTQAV
- CONDITION_DESCRIPTION: dog recombinant FXIa
MEASURED_ENDPOINT: Ki (nM)

INSERT INTO assay_data (compound, obs_value) VALUES
  ('C[C@@H]1CCC[C@H](n2cnc(-c3cc(Cl)ccc3-n3cc(Cl)nn3)cc2=O)c2cc(ccn2)-c2c(cnn2C(F)F)NC1=O [milvexian]', 0.64);

###

- TARGET_OF_ASSAY: recombinant FXIa (Oryctolagus cuniculus)
- Sequence (G1SSQ6 387-624): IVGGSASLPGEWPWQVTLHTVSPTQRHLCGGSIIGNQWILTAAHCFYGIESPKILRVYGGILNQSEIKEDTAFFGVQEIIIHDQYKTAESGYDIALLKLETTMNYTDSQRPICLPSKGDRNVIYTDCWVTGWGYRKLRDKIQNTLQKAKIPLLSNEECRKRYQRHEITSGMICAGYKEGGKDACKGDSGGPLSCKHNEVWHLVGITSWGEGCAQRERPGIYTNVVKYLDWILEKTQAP
- RUN_DESCRIPTION: biochemical
MEASURED_ENDPOINT: Ki (nM)

INSERT INTO assay_data (chem_smiles, measured_endpoint, obs_value) VALUES
  ('C[C@@H]1CCC[C@H](n2cnc(-c3cc(Cl)ccc3-n3cc(Cl)nn3)cc2=O)c2cc(ccn2)-c2c(cnn2C(F)F)NC1=O', 'Ki', 0.38);

###

- TARGET_OF_ASSAY: recombinant FXIa (Macaca fascicularis, UniProt A0A2K5VVW4)
- Sequence (A0A2K5VVW4 388-625): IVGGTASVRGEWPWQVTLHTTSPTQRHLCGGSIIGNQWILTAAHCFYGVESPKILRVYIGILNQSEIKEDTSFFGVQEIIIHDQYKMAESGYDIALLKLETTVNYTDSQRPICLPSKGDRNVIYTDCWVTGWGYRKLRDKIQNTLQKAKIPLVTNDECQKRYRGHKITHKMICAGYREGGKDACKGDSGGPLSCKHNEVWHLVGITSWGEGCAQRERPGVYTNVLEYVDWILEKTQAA
- RUN_DESCRIPTION: biochemical
MEASURED_ENDPOINT: Ki (nM)

INSERT INTO measurements (chem_smiles, measured_endpoint, unit_tag, obs_value) VALUES
  ('C[C@@H]1CCC[C@H](n2cnc(-c3cc(Cl)ccc3-n3cc(Cl)nn3)cc2=O)c2cc(ccn2)-c2c(cnn2C(F)F)NC1=O', 'Ki', 'nM', 0.15);

###

- RUN_DESCRIPTION: Pharmacokinetics in rabbits
- CONDITION_DESCRIPTION: rabbit, in vivo, po, 20 mg/kg
MEASURED_ENDPOINT: concentration at 24 h (nM)

INSERT INTO results (compound, unit_tag, obs_value) VALUES
  ('C[C@@H]1CCC[C@H](n2cnc(-c3cc(Cl)ccc3-n3cc(Cl)nn3)cc2=O)c2cc(ccn2)-c2c(cnn2C(F)F)NC1=O [milvexian]', 'nM', 40);

###

- RUN_DESCRIPTION: Pharmacokinetics in rabbits
- CONDITION_DESCRIPTION: male, rabbit, in vivo, iv, 0.8 mg/kg
MEASURED_ENDPOINT: concentration at 8 h (nM)

INSERT INTO measurements (molecule, unit_tag, obs_value) VALUES
  ('C[C@@H]1CCC[C@H](n2cnc(-c3cc(Cl)ccc3-n3cc(Cl)nn3)cc2=O)c2cc(ccn2)-c2c(cnn2C(F)F)NC1=O [milvexian]', 'nM', 100);

###

- RUN_DESCRIPTION: Pharmacokinetics in rabbits
- CONDITION_DESCRIPTION: rabbit, in vivo, po, 20 mg/kg
MEASURED_ENDPOINT: concentration at 1 h (nM)

INSERT INTO results (compound, obs_value) VALUES
  ('C[C@@H]1CCC[C@H](n2cnc(-c3cc(Cl)ccc3-n3cc(Cl)nn3)cc2=O)c2cc(ccn2)-c2c(cnn2C(F)F)NC1=O [milvexian]', 2000);
